assay: In vivo pharmacokinetic study; conditions: male, Sprague-Dawley, rat, po, 50 mg/kg
measured_quantity: half-life (h)
Give the quantity in h, number only.

Quick note, half-life for CCCCCCCCCNc1ccc(F)c(C(N)=O)c1F [Compound F332, 2,6-difluoro-3-(nonylamino)benzamide] landed at 3

* * *

test: in vivo; settings: male, Sprague-Dawley, rat, po, 50 mg/kg
measured_quantity: AUC (ng·h/mL)
Give the quantity in ng·h/mL, number only.

Quick note, AUC for CCCCCCCCCNc1ccc(F)c(C(N)=O)c1F [Compound F332, 2,6-difluoro-3-(nonylamino)benzamide] landed at 10400

* * *

experiment: in vivo; details: male, Sprague-Dawley, rat, iv, 1 mg/kg, Elimination half life
measured_quantity: half-life (h)
Give the quantity in h, number only.

Quick note, half-life for CCCCCCCCCNc1ccc(F)c(C(N)=O)c1F [Compound F332, 2,6-difluoro-3-(nonylamino)benzamide] landed at 5.82

Values from patent US20170348258A1
